Literature roundup of B1 bradykinin receptor (Homo sapiens) data, read-out log10 of Ki.
Scale: log10; quantity: Ki; unit before log: nM

COc1cc(C)c(S(=O)(=O)N(C)CCOCC(=O)N(C)Cc2ccc(CN3CCCC3)cc2C)c(C)c1	0.05
Cn1nnc(-c2c(F)cc(Cl)cc2-c2cnc3c(c2)CCC3NC(=O)C2(NC(=O)C(F)(F)F)CC2)n1 (racemic)	0.98
COc1cc(C)c(S(=O)(=O)N(C)CCOCC(=O)N(C)[C@H]2CC[C@@H](N3CCN(C)CC3)CC2)c(C)c1	0.71

Please state, for each entry, its recorded log10 of Ki.
1. COc1cc(C)c(S(=O)(=O)N(C)CCOCC(=O)N(C)[C@@H]2CCN(C(=O)CCN3CCCC3)C2)c(C)c1
2. COC(=O)c1c(Cl)cccc1-c1ccc2c(c1)CCC2NC(=O)C1(NC(=O)C(F)(F)F)CC1 (racemic)

0.79
2.09

I'm hoping you can list log10 of Ki for every compound here, please.
1. Cn1nnc(-c2c(F)cc(Cl)cc2-c2cnc3c(c2)CCC3NC(=O)C2(N)CC2)n1 (racemic)
2. COc1cc(C)c(S(=O)(=O)N(C)CCOCC(=O)N(C)Cc2ccc(N3CCCC(N(C)C)C3)cc2C)c(C)c1 (centres unmarked)

2.32
0.91

Answer for every listed entry: what is its log10 of Ki? The entries follow.
1. Cn1nnc(-c2c(F)cc(Cl)cc2-c2ccc3c(c2)OCCC3NC(=O)C2(NC(=O)C(F)(F)F)CC2)n1 (racemic)
2. COc1cc(C)c(S(=O)(=O)N(C)CCOCC(=O)N(C)C[C@H]2CC[C@@](C)(CN3CCCC3)C2(C)C)c(C)c1
3. COC(=O)c1c(Cl)cccc1-c1ccc([C@@H](C)NC(=O)C2(NC(=O)CC(F)(F)F)COC2)c(F)c1
4. Cn1nnc(-c2c(F)cc(Cl)cc2-c2ccc3c(c2)SCC3NC(=O)C2(NC(=O)c3ccno3)CC2)n1 (racemic)
5. Cc1nc(-c2c(F)cc(Cl)cc2-c2cnc3c(c2)CCC3NC(=O)C2(NC(=O)C(F)(F)F)CC2)no1 (racemic)

1: 2.23; 2: 0.15; 3: 0.72; 4: 0.85; 5: 0.64

For every listed record, write down its log10 of Ki.
1. Cc1nc(-c2c(F)cc(Cl)cc2-c2ccc3c(c2)OCC3NC(=O)C2(NC(=O)c3ccnnc3)CC2)no1 (racemic)
2. COc1cc(C)c(S(=O)(=O)N(C)CCOCC(=O)N(C)C2CCC(C3CCN(C)CC3)CC2)c(C)c1 (centres unmarked)

1. 1.28
2. 0.76
